Taken from patent US11975040B2.

- Tested on: Plexin B1
- PROCEDURE_DETAILS: Kd (s^-1)
No end group written: not given here.
Please use 1.0 for Kd under 0.01 s⁻¹ and 0.0 for everything else, ties included.

QUERY: Hello, is Kd of the following substance strictly smaller than 0.01 s⁻¹? RVRVERWTGKLI (not fully specified) [P3]
RESULT: 0.0

QUERY: A record lists AVSNLPPRPHITYIE [P1] . Is its Kd below 0.01 s⁻¹?
RESULT: 0.0

QUERY: Strictly below 0.01 s⁻¹: is that where Kd of wRPRVARWTGQITYC [P6] sits?
RESULT: 0.0

QUERY: Problem: For the substance NGTLSWQTYSHL [P8] , is Kd under 0.01 s⁻¹?
RESULT: 0.0

QUERY: Below 0.01 s⁻¹ on Kd? Entry RPRAARWTGQIIY (not fully specified) [P5]
RESULT: 1.0
